tested on: Axl (Homo sapiens)
Construct: endogenous in cells; host or cells: HeLa cells
Sequence (P30530 26-894): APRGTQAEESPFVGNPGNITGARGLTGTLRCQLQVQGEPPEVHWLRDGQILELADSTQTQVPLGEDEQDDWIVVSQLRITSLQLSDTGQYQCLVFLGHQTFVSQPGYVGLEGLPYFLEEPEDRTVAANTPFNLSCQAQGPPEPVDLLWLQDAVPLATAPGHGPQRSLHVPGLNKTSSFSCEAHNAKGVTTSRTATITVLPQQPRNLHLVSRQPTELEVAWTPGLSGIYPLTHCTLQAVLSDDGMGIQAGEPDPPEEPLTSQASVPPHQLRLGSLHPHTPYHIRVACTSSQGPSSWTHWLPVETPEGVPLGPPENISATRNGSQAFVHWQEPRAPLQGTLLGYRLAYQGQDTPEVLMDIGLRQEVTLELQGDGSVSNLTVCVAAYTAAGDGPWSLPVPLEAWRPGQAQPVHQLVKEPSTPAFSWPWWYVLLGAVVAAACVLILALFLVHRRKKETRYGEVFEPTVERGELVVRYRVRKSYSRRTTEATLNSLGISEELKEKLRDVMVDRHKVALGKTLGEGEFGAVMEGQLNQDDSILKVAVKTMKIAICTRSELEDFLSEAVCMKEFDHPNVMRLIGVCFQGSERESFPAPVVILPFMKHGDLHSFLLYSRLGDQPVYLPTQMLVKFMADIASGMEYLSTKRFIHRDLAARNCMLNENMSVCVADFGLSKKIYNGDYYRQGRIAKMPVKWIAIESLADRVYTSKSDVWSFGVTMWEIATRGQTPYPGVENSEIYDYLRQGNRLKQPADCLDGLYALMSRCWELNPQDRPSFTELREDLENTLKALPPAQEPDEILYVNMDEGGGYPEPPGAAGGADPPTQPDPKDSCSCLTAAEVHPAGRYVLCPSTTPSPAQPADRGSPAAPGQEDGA
experiment description: Phospho-Akt In-Cell Western Assay (inhibition of Axl activity after Axl-antibody cross-linking)
Format: cell-based
conditions: inhibition of Axl activity; Table 1, compounds of formula (Ia); read-out: IC50
experimental readout: IC50

# molecule, result
measured = [
    ("Nc1nc(Nc2ccc(C=CCN3CCCC3)cc2)nn1-c1cc2c(nn1)-c1ccccc1CCC2", "< 1 µM"),
    ("Nc1nc(Nc2cnc3c(c2)CC(N2CCCC2)CC3)nn1-c1cc2c(nn1)-c1ccccc1CCC2 (stereo not drawn)", "< 1 µM"),
    ("CN1CCN(C2CCc3ccc(Nc4nc(N)n(-c5cc6c(nn5)-c5ccccc5CCC6)n4)cc3CC2)CC1 (stereo not drawn)", "< 1 µM"),
    ("CCN(CC)CCC1CCCc2ccc(Nc3nc(N)n(-c4cc5c(nn4)-c4ccccc4CCC5)n3)cc2C1O (stereo not drawn)", "1 to 10 µM"),
    ("Nc1nc(Nc2ccc3c(c2)CCC(N2CCC(N4CCCC4)CC2)CC3)nn1-c1cc2c(nn1)-c1ccccc1CCC2 (stereo not drawn)", "< 1 µM"),
    ("COC(=O)[C@@H]1CCCN1C1CCc2ccc(Nc3nc(N)n(-c4cc5c(nn4)-c4ccccc4CCC5)n3)cc2CC1 (stereo partly drawn)", "< 1 µM"),
    ("Nc1nc(Nc2ccc3c(c2)CCC(N)CC3)nn1-c1cc2c(nn1)-c1ccccc1CCC2 (stereo not drawn)", "< 1 µM"),
    ("Nc1nc(Nc2ccc3c(c2)CCC(NC2CCC2)CC3)nn1-c1cc2c(nn1)-c1ccccc1CCC2 (stereo not drawn)", "< 1 µM"),
    ("Nc1nc(Nc2ccc3c(c2)CCC(N2CC[C@H](O)C2)CC3)nn1-c1cc2c(nn1)-c1ccccc1CCC2 (stereo partly drawn)", "< 1 µM"),
    ("Nc1nc(Nc2ccc(N3CCN(C4CCCCC4)CC3)c(F)c2)nn1-c1cc(-c2ccccc2)c2c(n1)-c1ccccc1CCC2", "10 to 20 µM"),
    ("Nc1nc(Nc2ccc3c(c2)CCC(N2CCC[C@H]2C(=O)O)CC3)nn1-c1cc2c(nn1)-c1ccccc1CCC2 (stereo partly drawn)", "1 to 10 µM"),
    ("Nc1nc(Nc2ccc3c(c2)CCC(O)CC3)nn1-c1cc2c(nn1)-c1ccccc1CCC2 (stereo not drawn)", "< 1 µM"),
    ("Nc1nc(Nc2ccc(CCCN3CCCCC3)nc2)nn1-c1cc2c(nn1)-c1ccccc1CCC2", "< 1 µM"),
    ("Nc1nc(Nc2cnc3c(c2)CCC(N2CCCC2)CC3)nn1-c1cc2c(nn1)-c1ccccc1CCC2 (stereo not drawn)", "< 1 µM"),
    ("Cc1csc2c(-n3nc(Nc4cnc5c(c4)CCC4(CC5)OCCO4)nc3N)nc(Cl)nc12", "< 1 µM"),
]
